Attribution: ChEMBL document CHEMBL1201862

Tested on: MCF7
Assay Method Text: NCI tumour cell line growth inhibition, 48 h
The source made the active and inactive calls. Cut-off read from the data, not from the text of the source: active = GI50 up to about 1.1 µM and inactive = higher.
Measured Parameter: GI50

GI50 lookup needed for Cn1c(=O)c2c(no[n+]2[O-])n(C)c1=O , thanks.
> 100 µM (inactive)

GI50 lookup needed for CCOC(=O)NC(C(F)(F)F)(C(F)(F)F)P(=O)(OC(C)C)OC(C)C , thanks.
> 100 µM (inactive)

GI50 lookup needed for Cc1nc2ccc(NCCN(C)C)c3c(=O)c4ccccc4n1c23 , thanks.
3.3 µM (inactive)

GI50 lookup needed for CCCCCCCCCCCC(=O)OC[C@H](C[As](=O)(O)O)OC(=O)CCCCCCCCCCC , thanks.
8.75 µM (inactive)

GI50 lookup needed for CC(=O)O[C@@H]1C(C2CCCCC2)C=[N+]([O-])O[C@@H]1OC1CCCC1(c1ccccc1)c1ccccc1 (stereo partly specified) , thanks.
3.18 µM (inactive)

Items follow; give GI50 for each.
1. c1ccc(C2C3=C(CCCC3)Nc3nc4cc5ccccc5cc4n32)cc1 (stereo unspecified)
2. Cc1cccc(C2NC(=O)c3ccccc3N2)c1 (stereo unspecified)
3. Nc1cc(Cl)cc2cc(Cl)cnc12
4. CN(CC(=O)O)c1ncc2c(n1)-c1ccccc1SC2

1. > 100 µM (inactive)
2. 3.15 µM (inactive)
3. > 100 µM (inactive)
4. 69.8 µM (inactive)

Items follow; give GI50 for each.
1. Nc1c(C(=O)c2ccccc2)nnc2ccccc12
2. N#CCCN(CCCN(C(=O)Nc1ccccc1)c1ccccc1)C(=O)Nc1ccccc1

1: 20.4 µM (inactive); 2: 84.5 µM (inactive)

====

Tested on: HCT-116
Assay Method Text: NCI tumour cell line growth inhibition, 48 h
Calls of active or inactive are those of the source. Rule as the data show it: active = GI50 up to about 1.1 µM and inactive = higher.
Task for the reader: assign each of the following molecules its reported GI50.

Below are worked cases with known answers.
GI50 lookup needed for O=S(=O)(NC1CCCCC1)c1ccc2c(c1)OCCOCCOCCOCCO2 , thanks.
> 100 µM (inactive)

GI50 lookup needed for C[C@@H](c1ccccc1)N1CO[C@@]2(C#Cc3ccc4c(c3)OCO4)CCC[C@@H]12 , thanks.
12 µM (inactive)

GI50 lookup needed for Cc1ccc(-n2c(=O)c3nn4c(=O)n(-c5ccc(C)cc5)c(=O)c4nn3c2=O)cc1 , thanks.
> 100 µM (inactive)

GI50 lookup needed for O=C(CNc1ccccc1Cl)Nn1c(-c2ccccc2)nc2ccccc2c1=O , thanks.
25.2 µM (inactive)

Next up:
GI50 lookup needed for Cc1ccc(OCC2OC(C#N)C(Oc3ccc(C)cc3)C2Oc2ccc(C)cc2)cc1 (stereo not given) , thanks.
> 100 µM (inactive)

====

Task for the reader: assign each of the following compounds its reported GI50.
Tested on: SF-539
Assay Method Text: NCI tumour cell line growth inhibition, 48 h
Active and inactive are the calls of the source. No stated cut-off is given here; in the data, active = GI50 up to about 1.1 µM and inactive = higher.

GI50 lookup needed for Cc1cc(N(CCC#N)CCC#N)ccc1/N=N/c1cccc(C(=O)O)c1 , thanks.
> 100 µM (inactive)

Items follow; give GI50 for each.
1. C=C1C(O)CC[C@]2(C)C1C1OC(C)(C)O[C@]13CC(=O)C(C)=C([C@H]1OC(C)(C)OC12)C3(C)C (stereo partly specified)
2. COc1cc([C@@H]2c3cc4c(cc3[C@@H](/N=C/c3ccc(C(=O)O[C@H]5C[C@H]6OC[C@@]6(OC(C)=O)[C@H]6[C@H](OC(=O)c7ccccc7)[C@]7(O)C[C@H](OC(=O)[C@H](OC(=O)c8ccc(/C=N/[C@@H]9c%10cc%11c(cc%10[C@@H](c%10cc(OC)c(O)c(OC)c%10)[C@H]%10C(=O)OC[C@@H]%109)OCO%11)cc8)[C@@H](NC(=O)c8ccccc8)c8ccccc8)C(C)=C([C@@H](OC(C)=O)C(=O)[C@]56C)C7(C)C)cc3)C3COC(=O)C32)OCO4)cc(C)c1O (stereo partly specified)
3. CCCCC(C#N)(OP1(=O)OC(c2ccccc2)C(C)N1C)c1ccccc1 (stereo unspecified)
4. COc1cccc2c1-c1ccccc1[C@H](Nc1ccccc1)[C@@]2(C)O
5. CN1CCCC(OC(=O)c2cc3cc(CCl)ccc3oc2=O)C1 (stereo unspecified)

["> 100 µM (inactive)", "7.23 µM (inactive)", "15.5 µM (inactive)", "2.77 µM (inactive)", "27 µM (inactive)"]
